test system: H-MEC-1; test: SRB colorimetric cell growth inhibition assay, H-MEC-1; type: cell-based; conditions: H-MEC-1; LC=cell killing (cytotoxic effect); read-out: LC50 H-MEC-1
observation.type: CC50 (µM)
A number alone suffices; assume µM.

Give CC50 for "COc1cc(-c2c3n(c4c(=O)oc5cc(OC(C)=O)c(OC)cc5c24)CCc2cc(OC)c(OC(C)=O)cc2-3)ccc1OC(C)=O" 15.9

====

test system: HeLa; test: SRB colorimetric cell growth inhibition assay, HeLa; assay type: cell-based; conditions: Homo sapiens, HeLa; cell killing (cytotoxic effect); read-out: LC50 HELA
observation.type: CC50 (µM)
A number alone suffices; assume µM.

Give CC50 for "COc1cc(-c2c3c4cc(OC)c(OC(=O)[C@H](C)NC(=O)[C@H](C)N)cc4oc(=O)c3n3ccc4c(OC(=O)[C@H](C)NC(=O)[C@H](C)N)c(OC)c(OC)cc4c23)ccc1OC(=O)[C@H](C)NC(=O)[C@H](C)N" 3.1

Give CC50 for "COc1cc(-c2c3c4cc(OC)c(OC(=O)CCCCCN)cc4oc(=O)c3n3ccc4cc(OC(=O)CCCCCN)c(OC)cc4c23)ccc1OC(=O)CCCCCN" 4.42

Give CC50 for "COc1cc(-c2c3c4cc(OC)c(OC(=O)C[C@H](N)C(C)C)cc4oc(=O)c3n3ccc4cc(OC(=O)C[C@H](N)C(C)C)c(OC)cc4c23)ccc1OC(=O)C[C@H](N)C(C)C" 1.93

Give CC50 for "CCCCCCCC(=O)Oc1ccc(-c2c3n(c4c(=O)oc5cc(OC(=O)CCCCCCC)c(OC)cc5c24)CCc2cc(OC(=O)CCCCCCC)c(OC)cc2-3)cc1OC" 11.4

Give CC50 for "CC[C@H](C)[C@H](N)C(=O)Oc1ccc(-c2c3c4cc(OC)c(OC(=O)[C@@H](N)[C@@H](C)CC)cc4oc(=O)c3n3ccc4cc(OC(=O)[C@@H](N)[C@@H](C)CC)c(OC)cc4c23)cc1OC" 1.01

====

system: K-562; test: SRB colorimetric cell growth inhibition assay, K-562; type: cell-based; conditions: Homo sapiens, K562, K-562; cell killing (cytotoxic effect); read-out: LC50 K-562
observation.type: CC50 (µM)
A number alone suffices; assume µM.

Give CC50 for COc1cc2c(cc1OC)-c1c(-c3ccc(OC(=O)[C@H](C)NC(=O)OC(C)(C)C)c(OC)c3)c3c4cc(OC)c(OC(=O)[C@H](C)NC(=O)OC(C)(C)C)cc4oc(=O)c3n1CC2 [Compound 21] 2.39

Give CC50 for COc1cc(-c2c3n(c4c(=O)oc5cc(O)c(OC)cc5c24)CCc2c-3cc(OC)c(OC)c2O)ccc1O [Compound 1] 2.97

Give CC50 for COc1cc(-c2c3c4cc(OC)c(OC(=O)[C@H](N)C(C)C)cc4oc(=O)c3n3ccc4cc(OC(=O)[C@H](N)C(C)C)c(OC)cc4c23)ccc1OC(=O)[C@H](N)C(C)C [Compound 17] 2.5

Give CC50 for COc1cc(-c2c3c4cc(OC)c(OC(=O)[C@@H](N)C(C)C)cc4oc(=O)c3n3ccc4cc(OC(=O)[C@@H](N)C(C)C)c(OC)cc4c23)ccc1OC(=O)[C@@H](N)C(C)C [Compound 195] 0.17

Give CC50 for COc1cc2ccn3c(c(-c4ccc(OC(=O)[C@@H](N)Cc5ccccc5)c(OC)c4)c4c5cc(OC)c(OC(=O)[C@@H](N)Cc6ccccc6)cc5oc(=O)c43)c2cc1OC [Compound 18] 8.64
